MEASURED_ON: hamster liver adenosine-homocystine (AdoHyc) hydrolase (Mesocricetus auratus)
QUANTITY_MEASURED: Ki (nM)
// units = nM; emit number, no label

INPUT: Field request: Ki | item: "Nc1nccc2c1ncn2[C@@H]1C=C(CO)[C@@H](O)[C@H]1O"
OUTPUT: 0.05

---

System: L1210 tumor cells
ASSAY_NOTES: Cytotoxicity against L1210 tumor cells in culture
Type: cell-based
PROTOCOL_CONDITIONS: Mus musculus, 48 hour exposure
QUANTITY_MEASURED: pIC50
# pIC50 = -log10(concentration in molar units)

INPUT: Any idea what pIC50 was measured for Nc1ncnc2c1nnn2[C@@H]1C=C(CO)[C@@H](O)[C@H]1O [Formula 8-Aza-CPE-A] ?
OUTPUT: 5.52
